System: Vero
Protocol summary: Minimum inhibitory concentration required to reduce virus induced cytopathicity by 50% was determined against coxsackie B4 virus in Vero cells
Type: functional
Assay context: Chlorocebus sabaeus
Test readout: MIC

Please look at this compound and report its MIC: O=c1[nH]c(=O)n([C@H]2C[C@H](O)[C@@H](CO)O2)cc1/C=C/Br
> 400 µg/mL

Please look at this compound and report its MIC: Nc1ncnc2c1ncn2[C@@H]1C[C@H](O)[C@@H](O)[C@H]1O
> 200 µg/mL

Please look at this compound and report its MIC: Nc1ncnc2c1ncn2[C@@H]1C=C(CO)[C@@H](O)[C@H]1O
> 40 µg/mL

Please look at this compound and report its MIC: Oc1ncnc2c1ncn2C1C[C@H](O)[C@H](O)[C@@H]1O (stereo partly drawn)
> 200 µg/mL

Please look at this compound and report its MIC: Nc1nc(O)c2ncn(C3C[C@H](O)[C@H](O)[C@@H]3O)c2n1 (stereo partly drawn)
> 200 µg/mL

* * *

As shown below, each of these molecules has a reported MIC value.
System: MDCK
Protocol summary: Minimum inhibitory concentration required to reduce virus induced cytopathicity by 50% was determined against influenza A virus in MDCK cells
Type: functional
Assay context: Canis lupus familiaris

Here's what some known entries look like.
Write MIC of Nc1nc(N)c2ncn(C3C[C@H](O)[C@H](O)[C@@H]3O)c2n1 (some centres undefined) ; system used: MDCK
> 100 µg/mL

Write MIC of Nc1ncnc2c1ncn2[C@@H]1C[C@H](O)[C@@H](O)[C@H]1O ; system used: MDCK
> 100 µg/mL

Write MIC of Nc1ncnc2c1ncn2[C@@H]1C=C(CO)[C@@H](O)[C@H]1O ; system used: MDCK
> 20 µg/mL

Then this molecule:
Write MIC of Nc1nc(O)c2ncn(C3C[C@H](O)[C@H](O)[C@@H]3O)c2n1 (some centres undefined) ; system used: MDCK
> 100 µg/mL

* * *

Test system: HeLa
Protocol summary: Minimum inhibitory concentration required to reduce virus induced cytopathicity by 50% was determined against vesicular stomatitis virus in HeLa cells
Type: functional
Assay context: Homo sapiens
As shown below, each of these compounds has a reported log10 of MIC value.
Scale type: logarithmic (base 10). Underlying MIC unit: µg/mL.

Here's what some known entries look like.
Please look at this compound and report its log10 of MIC: NC(CCS)C(=O)Nc1ncnc2c1ncn2C1O[C@H](CO)[C@@H](O)[C@H]1O (stereo partly drawn)
0.30

Please look at this compound and report its log10 of MIC: Nc1nc(N)c2ncn(C3C[C@H](O)[C@H](O)[C@@H]3O)c2n1 (stereo partly drawn)
1.85

Please look at this compound and report its log10 of MIC: Nc1ncnc2c1ncn2[C@@H]1C[C@H](O)[C@@H](O)[C@H]1O
-1.15

Please look at this compound and report its log10 of MIC: Nc1ncnc2c1ncn2[C@@H]1C=C(CO)[C@@H](O)[C@H]1O
-0.70

Then this compound:
Please look at this compound and report its log10 of MIC: NC(=O)c1ncn([C@@H]2O[C@H](CO)[C@@H](O)[C@H]2O)n1
1.30

* * *

Test system: E6SM
Protocol summary: Minimum inhibitory concentration required to reduce virus induced cytopathicity by 50% was determined against TK- HSV-1 virus in E6SM cells
Assay type: functional
Assay context: Homo sapiens
Test readout: MIC (µg/mL)
The response must be a number in µg/mL with no trailing unit.

Here's what some known entries look like.
Please look at this molecule and report its MIC: Nc1ncnc2c1ncn2[C@@H]1C[C@H](O)[C@@H](O)[C@H]1O
20

Please look at this molecule and report its MIC: Nc1ncnc2c1ncn2[C@@H]1C=C(CO)[C@@H](O)[C@H]1O
4

Please look at this molecule and report its MIC: O=c1[nH]c(=O)n([C@H]2C[C@H](O)[C@@H](CO)O2)cc1/C=C/Br
40

Then this molecule:
Please look at this molecule and report its MIC: Oc1ncnc2c1ncn2C1C[C@H](O)[C@H](O)[C@@H]1O (stereo partly drawn)
200

* * *

Tested on: HeLa
Protocol summary: Minimum inhibitory concentration required to reduce virus induced cytopathicity by 50% was determined against coxsackie B4 virus in HeLa cells
Format: functional
Assay context: Homo sapiens
As shown below, each of these compounds has a reported MIC value.

Here's what some known entries look like.
Please look at this compound and report its MIC: Nc1nc(O)c2ncn(C3C[C@H](O)[C@H](O)[C@@H]3O)c2n1 (stereo partly drawn)
> 400 µg/mL

Please look at this compound and report its MIC: Nc1ncnc2c1ncn2[C@@H]1C[C@H](O)[C@@H](O)[C@H]1O
> 200 µg/mL

Please look at this compound and report its MIC: Nc1nc(N)c2ncn(C3C[C@H](O)[C@H](O)[C@@H]3O)c2n1 (stereo partly drawn)
> 400 µg/mL

Please look at this compound and report its MIC: O=c1[nH]c(=O)n([C@H]2C[C@H](O)[C@@H](CO)O2)cc1/C=C/Br
> 400 µg/mL

Please look at this compound and report its MIC: Nc1ncnc2c1ncn2[C@@H]1C=C(CO)[C@@H](O)[C@H]1O
> 40 µg/mL

Please look at this compound and report its MIC: NC(CCS)C(=O)Nc1ncnc2c1ncn2C1O[C@H](CO)[C@@H](O)[C@H]1O (stereo partly drawn)
> 400 µg/mL

Please look at this compound and report its MIC: NC(=O)c1ncn([C@@H]2O[C@H](CO)[C@@H](O)[C@H]2O)n1
70 µg/mL

Others:
Please look at this compound and report its MIC: Oc1ncnc2c1ncn2C1C[C@H](O)[C@H](O)[C@@H]1O (stereo partly drawn)
> 400 µg/mL

* * *

Tested on: Vero
Protocol summary: Minimum inhibitory concentration required to reduce virus induced cytopathicity by 50% was determined against measles virus in Vero cells
Type: functional
Assay context: Chlorocebus sabaeus
As shown below, each of these molecules has a reported MIC value.
The response must be a number in µg/mL with no trailing unit.

Here's what some known entries look like.
Please look at this molecule and report its MIC: Nc1ncnc2c1ncn2[C@@H]1C[C@H](O)[C@@H](O)[C@H]1O
0.4

Please look at this molecule and report its MIC: Nc1nc(N)c2ncn(C3C[C@H](O)[C@H](O)[C@@H]3O)c2n1 (stereo partly specified)
20

Then this molecule:
Please look at this molecule and report its MIC: Nc1ncnc2c1ncn2[C@@H]1C=C(CO)[C@@H](O)[C@H]1O
0.2

* * *

As shown below, each of these compounds has a reported MIC value.
Tested on: Vero
Protocol summary: Minimum inhibitory concentration required to reduce virus induced cytopathicity by 50% was determined against tacaribe virus in Vero cells
Assay type: functional, Homo sapiens
Assay context: Chlorocebus sabaeus
The response must be a number in µg/mL with no trailing unit.

Here's what some known entries look like.
Please look at this compound and report its MIC: Nc1ncnc2c1ncn2[C@@H]1C=C(CO)[C@@H](O)[C@H]1O [NEOPLANOCIN A]
0.4

Please look at this compound and report its MIC: Nc1nc(N)c2ncn(C3C[C@H](O)[C@H](O)[C@@H]3O)c2n1 (stereo partly specified)
100

Others:
Please look at this compound and report its MIC: NC(CCS)C(=O)Nc1ncnc2c1ncn2C1O[C@H](CO)[C@@H](O)[C@H]1O (stereo partly specified)
2

Please look at this compound and report its MIC: Nc1ncnc2c1ncn2[C@@H]1C[C@H](O)[C@@H](O)[C@H]1O [NORARISTEROMYCIN]
1

* * *

Tested on: Vero
Protocol summary: Minimum inhibitory concentration required to reduce virus induced cytopathicity by 50% was determined against coxsackie B4 virus in Vero cells
Format: functional
Assay context: Chlorocebus sabaeus
Test readout: MIC

Please look at this compound and report its MIC: NC(=O)c1ncn([C@@H]2O[C@H](CO)[C@@H](O)[C@H]2O)n1 [RIBAVIRIN]
100 µg/mL

Please look at this compound and report its MIC: Nc1nc(N)c2ncn(C3C[C@H](O)[C@H](O)[C@@H]3O)c2n1 (stereo partly drawn)
> 200 µg/mL

Then this compound:
Please look at this compound and report its MIC: NC(CCS)C(=O)Nc1ncnc2c1ncn2C1O[C@H](CO)[C@@H](O)[C@H]1O (stereo partly drawn)
> 100 µg/mL

* * *

As shown below, each of these compounds has a reported MIC value.
Tested on: HeLa
Protocol summary: Minimum inhibitory concentration required to reduce virus induced cytopathicity by 50% was determined against vesicular stomatitis virus in HeLa cells
Type: functional
Assay context: Homo sapiens

Write MIC of Oc1ncnc2c1ncn2C1C[C@H](O)[C@H](O)[C@@H]1O (stereo partly drawn) ; system used: HeLa
> 400 µg/mL

Write MIC of O=c1[nH]c(=O)n([C@H]2C[C@H](O)[C@@H](CO)O2)cc1/C=C/Br ; system used: HeLa
> 400 µg/mL

Others:
Write MIC of Nc1nc(O)c2ncn(C3C[C@H](O)[C@H](O)[C@@H]3O)c2n1 (stereo partly drawn) ; system used: HeLa
> 400 µg/mL

* * *

System: E6SM
Protocol summary: Minimum inhibitory concentration required to reduce virus induced cytopathicity by 50% was determined against TK- HSV-1 virus in E6SM cells
Type: functional
Assay context: Homo sapiens
Test readout: MIC

Please look at this molecule and report its MIC: NC(=O)c1ncn([C@@H]2O[C@H](CO)[C@@H](O)[C@H]2O)n1
> 400 µg/mL
